# Tested on: CCD-18Co (normal human colon fibroblasts)
# testDescription: MTS cytotoxicity / antiproliferative assay
# Type: cell-based
# setupConditions: Homo sapiens, CCD-18Co, 72 h, Table 6 maple compounds; 72 h; unit inferred; read-out: CCD-18Co 72 h(IC50)
recordedEndpoint: pIC50
Remember the convention: pIC50 equals -log10 of concentration in molar.

Recorded pIC50 of COc1cc2ccc(=O)oc2cc1O [compound 8, scopoletin] , please.
3.99

Recorded pIC50 of COc1cc([C@@H]2c3cc4c(cc3[C@@H](O[C@@H]3O[C@@H]5CO[C@@H](C)O[C@H]5[C@H](O)[C@H]3O)[C@H]3COC(=O)[C@H]23)OCO4)cc(OC)c1O [Etoposide, reference compound] , please.
4.37

Recorded pIC50 of COc1cc(C2Oc3c(OC)cc(CCCO)cc3C2CO)cc(OC)c1O (centres unmarked) [compound 4] , please.
4.00

Recorded pIC50 of O=Cc1ccc(O)c(O)c1 [compound 14, catechaldehyde] , please.
3.90

Recorded pIC50 of O=C(OC[C@H]1OC[C@H](OC(=O)c2cc(O)c(O)c(O)c2)[C@@H](O)[C@@H]1O)c1cc(O)c(O)c(O)c1 [compound 70, 2,6-di-O-galloyl-1,5-anhydro-D-glucitol] , please.
4.04

###

# Test system: HCT-116 (human colon carcinoma)
# testDescription: MTS cytotoxicity / antiproliferative assay
# Type: cell-based
# setupConditions: Homo sapiens, HCT-116, 72 h, 72 h; range given for the group; read-out: IC50 against HCT-116 cells at 72 h (activity ranking)
Task for the reader: assign each of the following compounds its reported IC50.

Recorded IC50 of Oc1ccc(O)c(O)c1 [compound 52, 4-hydroxycatechol] , please.
42 to 67 µM

Recorded IC50 of COc1cc(/C=C/CO)cc(OC)c1O [compound 20, syringenin] , please.
94 to 110 µM

Recorded IC50 of COc1cc([C@@H](O)[C@@H](CO)Oc2ccc(CCCO)cc2OC)ccc1O [compound 6] , please.
94 to 110 µM

Recorded IC50 of COc1cc(CCCO)ccc1OC(CO)C(O)c1ccc(OC2OC(C)C(O)C(O)C2O)c(OC)c1 (stereo not shown) [compound 55] , please.
94 to 110 µM

Recorded IC50 of COc1cc(C=O)ccc1O [compound 15, vanillin] , please.
94 to 110 µM

Recorded IC50 of COc1cc2ccc(=O)oc2cc1O [compound 8, scopoletin] , please.
42 to 67 µM

Recorded IC50 of O=C(O)c1cc(O)c(O)c(O)c1 [compound 17, gallic acid] , please.
42 to 67 µM

Recorded IC50 of COc1cc(CC(CO)C(CO)Cc2ccc(O)c(OC)c2)ccc1O (stereo not shown) [compound 2, secoisolariciresinol] , please.
42 to 67 µM

Recorded IC50 of COc1cc(C(=O)O)cc(OC)c1O [compound 19, syringic acid] , please.
94 to 110 µM

Recorded IC50 of COc1cc(C(=O)C(O)CO)ccc1O (stereo not shown) [compound 22, C-veratroylglycol] , please.
42 to 67 µM

Recorded IC50 of Oc1ccccc1O [compound 23, catechol] , please.
42 to 67 µM

Recorded IC50 of OCCc1ccc(O)cc1 [compound 50, tyrosol] , please.
94 to 110 µM

Recorded IC50 of O=Cc1ccc(O)c(O)c1 [compound 14, catechaldehyde] , please.
42 to 67 µM
